target: Histamine H3 receptor (Homo sapiens, UniProt Q9Y5N1); assay: Inverse agonist activity at human histamine H3 receptor expressed in CHO cells by GTPgammaS assay
Sequence (Q9Y5N1 whole entry): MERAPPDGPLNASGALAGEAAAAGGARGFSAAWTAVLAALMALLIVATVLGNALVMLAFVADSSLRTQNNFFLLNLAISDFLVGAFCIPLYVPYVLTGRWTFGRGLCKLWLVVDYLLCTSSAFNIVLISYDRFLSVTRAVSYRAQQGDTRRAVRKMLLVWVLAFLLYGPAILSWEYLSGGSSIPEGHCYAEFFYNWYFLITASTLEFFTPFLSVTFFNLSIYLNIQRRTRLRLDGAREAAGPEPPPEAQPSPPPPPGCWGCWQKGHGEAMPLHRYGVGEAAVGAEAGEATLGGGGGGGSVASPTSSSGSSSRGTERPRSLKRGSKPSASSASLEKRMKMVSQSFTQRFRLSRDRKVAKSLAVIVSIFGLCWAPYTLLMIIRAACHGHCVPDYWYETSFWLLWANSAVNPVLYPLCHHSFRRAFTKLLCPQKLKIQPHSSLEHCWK
property: EC50 (nM)
One number for each entry, in nM.

Asked: Please look up its EC50: "CC(C)N1CCC(Oc2ccc3cc(C(=O)NC4CCCCC4)ccc3c2)CC1"
Given back: 21

====

target: Histamine H3 receptor (Homo sapiens); assay: Displacement of [3H]RAMH from human histamine H3 receptor expressed in CHO cells at 3 uM; format: cell-based
property: inhibition (%)
Give bare numbers, in %.

Please review the entries below; each comes with its answer.
{"columns": ["structure_smiles", "value_reported"],
 "data": [
  ["CC(C)N1CCC(Oc2ccc3c(C(=O)N4CCCC4)cccc3c2)CC1", 53],
  ["O=C(c1cccc2cc(OCCCN3CCCCC3)ccc12)N1CCCC1", 58],
  ["CC(C)N1CCC(Nc2ccc3cc(C(=O)NC4CCCCC4)ccc3c2)CC1", 57],
  ["CC(C)N1CCC(Oc2ccc3c(C(=O)NC4CCCCC4)cccc3c2)CC1", 52],
  ["CC(C)N1CCC(Nc2ccc3cc(C(=O)N4CCOCC4)ccc3c2)CC1", 61]
]}

Continue with the molecule presented below.
Asked: Please look up its inhibition: "CC(C)N1CCC(Nc2ccc3cc(C(=O)N4CCCC4)ccc3c2)CC1"
Given back: 45
